Tested on: Haemophilus influenzae 1218
assayExplanation: MIC, microtiter broth dilution (NCCLS M100-S14), H. influenzae 1218 (susceptible)
Format: cell-based
measurementParameters: Haemophilus influenzae 1218
Provide the reported MIC H. influenzae 1218 of each item.
Give bare numbers, in µg/mL.

Reference set, count: 3
| compound | MIC H. influenzae 1218 / µg/mL |
| --- | --- |
| CCC1OC(=O)C(C)C(=O)C(C)C(OC2OC(C)CC(N(C)C)C2O)C(C)(OC)CC(C)C(=O)C(C)C2N(C3CN(C(=O)c4ccnc(-n5cnnn5)c4)C3)C(=O)OC12C (centres unmarked) | 32 |
| CCC1OC(=O)C(C)C(=O)C(C)C(OC2OC(C)CC(N(C)C)C2O)C(C)(OC)CC(C)C(=O)C(C)C2N(C3CN(Cc4ccnc5ncsc45)C3)C(=O)OC12C (centres unmarked) | 1 |
| CCC1OC(=O)C(C)C(=O)C(C)C(OC2OC(C)CC(N(C)C)C2O)C(C)(OC)CC(C)C(=O)C(C)C2N(C3CN(Cc4ccncc4Cl)C3)C(=O)OC12C (centres unmarked) | 1 |

input: // MIC H. influenzae 1218 lookup, key: CCC1OC(=O)C(C)C(=O)C(C)C(OC2OC(C)CC(N(C)C)C2O)C(C)(OC)CC(C)C(=O)C(C)C2N(C3CN(S(=O)(=O)c4ccc5c(c4)CS(=O)(=O)C5)C3)C(=O)OC12C (centres unmarked)
output: 0.5
